Data provenance: ChEMBL document CHEMBL3988442

Assay system: Tryptophan--tRNA ligase (Mycobacterium tuberculosis (strain ATCC 25618 / H37Rv), UniProt P9WFT3)
Sequence (P9WFT3 whole entry): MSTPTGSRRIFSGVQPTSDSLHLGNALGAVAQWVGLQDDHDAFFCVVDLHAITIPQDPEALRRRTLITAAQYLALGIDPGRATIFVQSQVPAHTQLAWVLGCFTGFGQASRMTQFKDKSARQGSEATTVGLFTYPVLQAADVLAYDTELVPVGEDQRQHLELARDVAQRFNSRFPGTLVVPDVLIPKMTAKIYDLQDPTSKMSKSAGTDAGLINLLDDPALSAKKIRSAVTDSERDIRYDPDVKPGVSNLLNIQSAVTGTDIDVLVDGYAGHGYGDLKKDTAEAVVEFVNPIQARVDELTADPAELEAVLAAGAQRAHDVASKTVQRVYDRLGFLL
Measurement description: Biochemical assay for Mt-TrpRS
pIC50: −log10 of the molar value.
Task for the reader: assign each of the following molecules its reported pIC50.

Below, each entry is followed by its recorded pIC50 result.
CC(=O)N1CCCC1c1cccc(Cc2ccccc2Cl)n1 (stereo unspecified)    < 3.71
c1cc(CN2C[C@H](OCC3CCOCC3)[C@H]3COC[C@H]32)co1    < 3.71
COc1ccc(C2Nc3cc(Cl)ccc3C3=NCCN32)cc1O (stereo unspecified)    < 3.71
CC(=O)N1CCC(C(=O)N2CCC2c2nc(-c3ccc(C)s3)no2)CC1 (stereo unspecified)    < 3.71
Nc1nccc(C2CCN(CCO)C2)n1 (stereo unspecified)    < 3.71

# return pIC50 for each item in the list
1. Cn1cc(C(=O)NCc2cncc3c2CCN(CC2CC2)C3)cn1
2. COc1ccc(CN2C[C@@H](O)[C@](O)(CNC(=O)c3ccccn3)C2)cc1
3. CO[C@H]1CN(Cc2ccc(F)c(F)c2)C[C@@]12CCCO2
4. CC(C)CC(=O)N1CC(=O)N(Cc2ccco2)CC(O)C1 (stereo unspecified)
5. COc1cc(N(C)CCC(O)c2ccccc2)ncn1 (stereo unspecified)
6. Oc1cc(CC2COCCN(CC3(O)CCOCC3)C2)ncn1 (stereo unspecified)

1. < 3.71
2. < 3.71
3. < 3.71
4. < 3.71
5. < 3.71
6. < 3.71
